# Test system: Vero E6 infected with SARS-CoV-2
# ASSAY NOTES: inhibition of SARS-CoV-2 cytopathic effect; higher = more antiviral protection, active = above 15
# MEASUREMENT PARAMETERS: 10000 nM; 48 h
Possible outcomes: Y = active, N = inactive

[
  {
    "MOLECULE": "O=C(NC1(c2ccccc2)CC1)c1c(CN2CCC(N3CCCCC3)CC2)c(-c2cccc(C(F)(F)F)c2)nc2cc(Br)ccc12",
    "TEST SYSTEM": "Vero E6 infected with SARS-CoV-2",
    "GROUP LABEL": "N"
  },
  {
    "MOLECULE": "CN1C[C@@H](NS(=O)(=O)N(C)C)C[C@@H]2c3cccc4c3c(cn4C)C[C@H]21 [mesulergine]",
    "TEST SYSTEM": "Vero E6 infected with SARS-CoV-2",
    "GROUP LABEL": "N"
  },
  {
    "MOLECULE": "O=C(O)CCCN1CCC(O[C@@H](c2ccc(Cl)cc2)c2ccccn2)CC1 [bepotastine]",
    "TEST SYSTEM": "Vero E6 infected with SARS-CoV-2",
    "GROUP LABEL": "N"
  },
  {
    "MOLECULE": "c1ccc(-c2nc(CN3CCN(c4ncccn4)CC3)c[nH]2)cc1",
    "TEST SYSTEM": "Vero E6 infected with SARS-CoV-2",
    "GROUP LABEL": "N"
  },
  {
    "MOLECULE": "CC(C)N(CCC(C(N)=O)(c1ccccc1)c1ccccn1)C(C)C (stereo unspecified) [disopyramide]",
    "TEST SYSTEM": "Vero E6 infected with SARS-CoV-2",
    "GROUP LABEL": "N"
  },
  {
    "MOLECULE": "CC(C)n1nccc1-c1ncccc1COc1cccc(O)c1C=O [voxelotor]",
    "TEST SYSTEM": "Vero E6 infected with SARS-CoV-2",
    "GROUP LABEL": "N"
  },
  {
    "MOLECULE": "CCN(CCNC(=O)Nc1ccccc1Br)c1cccc(C)c1",
    "TEST SYSTEM": "Vero E6 infected with SARS-CoV-2",
    "GROUP LABEL": "N"
  },
  {
    "MOLECULE": "Nc1c2ccccc2nc2ccccc12 [9-aminoacridine]",
    "TEST SYSTEM": "Vero E6 infected with SARS-CoV-2",
    "GROUP LABEL": "N"
  },
  {
    "MOLECULE": "CCC[C@@H]1C[C@@H](C(=O)N[C@@H]([C@H]2O[C@H](SC)[C@H](O)[C@@H](O)[C@H]2O)[C@H](C)Cl)N(C)C1",
    "TEST SYSTEM": "Vero E6 infected with SARS-CoV-2",
    "GROUP LABEL": "N"
  },
  {
    "MOLECULE": "CCOC(N)=O [urethane]",
    "TEST SYSTEM": "Vero E6 infected with SARS-CoV-2",
    "GROUP LABEL": "N"
  },
  {
    "MOLECULE": "CCCCCNCC(N)=O [milacemide]",
    "TEST SYSTEM": "Vero E6 infected with SARS-CoV-2",
    "GROUP LABEL": "N"
  },
  {
    "MOLECULE": "CC1(C)C(/C=C/C=C/C=C/C=C2\\N(CCCCS(=O)(=O)O)c3ccc4ccccc4c3C2(C)C)=[N+](CCCCS(=O)(=O)[O-])c2ccc3ccccc3c21 [indocyanine-green]",
    "TEST SYSTEM": "Vero E6 infected with SARS-CoV-2",
    "GROUP LABEL": "N"
  },
  {
    "MOLECULE": "O=C(O)CCC(=O)c1ccc(-c2ccccc2)cc1 [fenbufen]",
    "TEST SYSTEM": "Vero E6 infected with SARS-CoV-2",
    "GROUP LABEL": "N"
  },
  {
    "MOLECULE": "NS(=O)(=O)c1cc2c(cc1Cl)NCNS2(=O)=O [hydrochlorothiazide]",
    "TEST SYSTEM": "Vero E6 infected with SARS-CoV-2",
    "GROUP LABEL": "N"
  },
  {
    "MOLECULE": "Cc1[nH]c2ccccc2c1CCNCc1ccc(/C=C/C(=O)NO)cc1 [panobinostat]",
    "TEST SYSTEM": "Vero E6 infected with SARS-CoV-2",
    "GROUP LABEL": "N"
  },
  {
    "MOLECULE": "CC(C)=CCC[C@](C)(O)[C@@H]1CC=C(C)CC1 [levomenol]",
    "TEST SYSTEM": "Vero E6 infected with SARS-CoV-2",
    "GROUP LABEL": "N"
  },
  {
    "MOLECULE": "CC(C)(Oc1ccc(C(=O)c2ccc(Cl)cc2)cc1)C(=O)O [fenofibric-acid]",
    "TEST SYSTEM": "Vero E6 infected with SARS-CoV-2",
    "GROUP LABEL": "N"
  },
  {
    "MOLECULE": "N#Cc1ccc(Oc2ccc3c(c2)COB3O)cc1 [crisaborole]",
    "TEST SYSTEM": "Vero E6 infected with SARS-CoV-2",
    "GROUP LABEL": "N"
  },
  {
    "MOLECULE": "CCC/N=C1\\S/C(=C\\c2ccc(OC[C@H](O)CO)c(Cl)c2)C(=O)N1c1ccccc1C [ponesimod]",
    "TEST SYSTEM": "Vero E6 infected with SARS-CoV-2",
    "GROUP LABEL": "N"
  },
  {
    "MOLECULE": "CCN(CC)Cc1ccc(C(=O)N(CCc2ccccc2OC)[C@@H]2CCNC2)cc1",
    "TEST SYSTEM": "Vero E6 infected with SARS-CoV-2",
    "GROUP LABEL": "N"
  },
  {
    "MOLECULE": "Cn1cc(-c2ccc3nnc(Sc4ccc5ncccc5c4)n3n2)cn1",
    "TEST SYSTEM": "Vero E6 infected with SARS-CoV-2",
    "GROUP LABEL": "N"
  },
  {
    "MOLECULE": "CN1CCc2cc(Cl)c(O)cc2[C@@H](c2ccccc2)C1",
    "TEST SYSTEM": "Vero E6 infected with SARS-CoV-2",
    "GROUP LABEL": "N"
  },
  {
    "MOLECULE": "NC(CO)C(=O)NNCc1ccc(O)c(O)c1O (stereo unspecified) [benserazide]",
    "TEST SYSTEM": "Vero E6 infected with SARS-CoV-2",
    "GROUP LABEL": "N"
  },
  {
    "MOLECULE": "C[C@H](c1ccc(F)cc1CCCC(=O)O)N(c1cc(F)ccc1F)S(=O)(=O)c1ccc(Cl)cc1",
    "TEST SYSTEM": "Vero E6 infected with SARS-CoV-2",
    "GROUP LABEL": "N"
  },
  {
    "MOLECULE": "CN(C)Cc1cccc(N=C(c2ccccc2)c2c(O)[nH]c3cc(C(=O)N(C)C)ccc23)c1",
    "TEST SYSTEM": "Vero E6 infected with SARS-CoV-2",
    "GROUP LABEL": "N"
  },
  {
    "MOLECULE": "C#C[C@]1(OC(=O)CCCCCC)CC[C@H]2[C@@H]3CCC4=CC(=O)CC[C@@H]4[C@H]3CC[C@@]21C [norethisterone-enanthate]",
    "TEST SYSTEM": "Vero E6 infected with SARS-CoV-2",
    "GROUP LABEL": "N"
  },
  {
    "MOLECULE": "O=C(NOCC1CC1)c1ccc(F)c(F)c1Nc1ccc(I)cc1Cl",
    "TEST SYSTEM": "Vero E6 infected with SARS-CoV-2",
    "GROUP LABEL": "N"
  },
  {
    "MOLECULE": "Cc1ccc(C(C)C)c(O)c1 [thymol]",
    "TEST SYSTEM": "Vero E6 infected with SARS-CoV-2",
    "GROUP LABEL": "N"
  },
  {
    "MOLECULE": "C[C@@H](Oc1cc(-n2cnc3ccc(CN4CCN(C)CC4)cc32)sc1C(N)=O)c1ccccc1C(F)(F)F",
    "TEST SYSTEM": "Vero E6 infected with SARS-CoV-2",
    "GROUP LABEL": "Y"
  },
  {
    "MOLECULE": "O=C(O)/C=C/CO [trans-4-hydroxycrotonic-acid]",
    "TEST SYSTEM": "Vero E6 infected with SARS-CoV-2",
    "GROUP LABEL": "N"
  },
  {
    "MOLECULE": "COc1ccc(Cl)cc1C(=O)NCCc1ccc(C(=O)O)cc1 [meglitinide]",
    "TEST SYSTEM": "Vero E6 infected with SARS-CoV-2",
    "GROUP LABEL": "N"
  }
]

Hey, just so you know, these numbers are from the supplement of paper PMC13380429.
